- Test system: peptide-specific CTL precursors in PBMCs
- EXPERIMENT NOTES: Peptide-specific CTL precursors in pre- and post (6th)-vaccination PBMCs by IFN-γ-release assay
- Format: cell-based, human
- RECORDED CONDITIONS: post (6th)-vaccination PBMC; positive cases/No. of tested cases (% positive)
ASSAY READOUT: Increased immune reactions to peptide: CTL activity

{"ORDERED RESIDUES": "DFMIQGGDF [CypB91]", "SUBJECT OF TEST": "peptide-specific CTL precursors in PBMCs", "RESULT": "0/17"}
{"ORDERED RESIDUES": "ILPRKHHRI [UBE208]", "SUBJECT OF TEST": "peptide-specific CTL precursors in PBMCs", "RESULT": "0/1"}
{"ORDERED RESIDUES": "RIIYDRKFL [EIF51]", "SUBJECT OF TEST": "peptide-specific CTL precursors in PBMCs", "RESULT": "0/1"}
{"ORDERED RESIDUES": "ASLDSDPWV [WHSC103]", "SUBJECT OF TEST": "peptide-specific CTL precursors in PBMCs", "RESULT": "0/6"}

Numbers sourced from patent US20080254445A1.
